Would you kindly list mAb-1 Binding to the Pre-complex of mAb-2 & hIL-33 for each of these binders?
Molecular target: T1, human IL-33 (R&D Systems, #3625-IL-010/CF) (human, UniProt O95760 112-270)
T1 construct: Commercial recombinant protein; also called hIL-33; interleukin-33
T1 sequence (looked up): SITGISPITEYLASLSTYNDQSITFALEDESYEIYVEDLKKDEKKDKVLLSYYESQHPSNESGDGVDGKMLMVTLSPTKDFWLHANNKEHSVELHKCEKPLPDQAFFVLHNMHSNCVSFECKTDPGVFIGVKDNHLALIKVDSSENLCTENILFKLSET
Test: BLI; hIL-33 pre-mixed with mAb-2 Isotype control 1
Number plus unit, in that order.

input: Consider the binder H4H9670P (antibody, V domains shown, Human IgG4 Fc (H4H)) VH: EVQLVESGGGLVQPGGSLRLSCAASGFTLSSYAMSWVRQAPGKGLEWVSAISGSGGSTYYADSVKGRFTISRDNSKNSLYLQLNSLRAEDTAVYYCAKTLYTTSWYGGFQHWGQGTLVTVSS VL: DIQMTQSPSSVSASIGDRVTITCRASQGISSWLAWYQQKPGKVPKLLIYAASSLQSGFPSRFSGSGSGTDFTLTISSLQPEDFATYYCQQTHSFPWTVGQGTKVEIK and give its recorded mAb-1 Binding to the Pre-complex of mAb-2 & hIL-33.
output: 0.19 nm

input: Quick one: give measured mAb-1 Binding to the Pre-complex of mAb-2 & hIL-33 for H4H9660P (antibody, human IgG4, V domains shown, Human IgG4 Fc (H4H)) VH: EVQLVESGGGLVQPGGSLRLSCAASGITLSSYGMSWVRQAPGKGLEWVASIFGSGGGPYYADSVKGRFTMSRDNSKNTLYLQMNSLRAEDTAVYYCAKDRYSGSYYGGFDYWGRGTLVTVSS VL: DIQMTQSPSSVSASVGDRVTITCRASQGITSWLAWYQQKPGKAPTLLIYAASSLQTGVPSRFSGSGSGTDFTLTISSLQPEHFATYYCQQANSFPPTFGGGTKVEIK
output: 0.21 nm

input: Using known records, supply mAb-1 Binding to the Pre-complex of mAb-2 & hIL-33 for H1M9559N (antibody, mouse IgG1, V domains shown, Human variable domains, mouse IgG1 Fc (H1M)) VH: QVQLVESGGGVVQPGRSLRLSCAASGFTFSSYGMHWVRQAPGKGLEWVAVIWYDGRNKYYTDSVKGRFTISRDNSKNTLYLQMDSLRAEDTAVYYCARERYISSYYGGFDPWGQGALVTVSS VL: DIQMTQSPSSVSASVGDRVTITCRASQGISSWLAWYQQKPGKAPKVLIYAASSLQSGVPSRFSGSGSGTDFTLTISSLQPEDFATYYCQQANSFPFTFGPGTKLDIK
output: 0.06 nm

input: Please give measured mAb-1 Binding to the Pre-complex of mAb-2 & hIL-33 of the following entry: H4H9665P (antibody, human IgG4, V domains shown, Human IgG4 Fc (H4H)) VH: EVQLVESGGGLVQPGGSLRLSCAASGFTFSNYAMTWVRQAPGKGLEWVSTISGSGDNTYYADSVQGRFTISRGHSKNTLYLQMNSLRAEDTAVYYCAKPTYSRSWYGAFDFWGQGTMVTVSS VL: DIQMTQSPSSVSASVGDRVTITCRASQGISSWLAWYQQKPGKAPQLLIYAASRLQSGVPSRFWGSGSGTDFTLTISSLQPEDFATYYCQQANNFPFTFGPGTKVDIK
output: 0.14 nm

input: Give mAb-1 Binding to the Pre-complex of mAb-2 & hIL-33 for the following binder: H4H9663P (antibody, human IgG4, V domains shown, Human IgG4 Fc (H4H)) VH: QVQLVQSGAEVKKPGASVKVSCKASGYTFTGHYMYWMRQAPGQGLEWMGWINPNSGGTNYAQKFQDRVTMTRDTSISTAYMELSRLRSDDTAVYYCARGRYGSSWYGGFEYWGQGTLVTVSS VL: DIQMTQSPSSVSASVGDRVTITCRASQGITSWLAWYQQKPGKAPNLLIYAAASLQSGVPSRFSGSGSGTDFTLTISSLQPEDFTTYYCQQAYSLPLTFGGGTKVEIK
output: 0.17 nm
